- Test system: P815
- RUN DESCRIPTION: The compound was tested for anticancer activity against P815 (sensitive) cell lines of mouse leukemia
- Type: functional
- PROTOCOL CONDITIONS: read-out: ID50 (the source's name)
QUANTITY NAME: log10 IC50 (log10 of the value in µg/mL)

>>> print(df.to_string())
                                    molecule  result
 0  CS(=O)(=O)O[C@@H]1[C@@H](O)[C@H](n2cc(F)c(N)nc2=O)O[C@@H]1CO   -1.70
 1  Nc1nc(=O)n(C2OC(CO)C(Cl)C2O)cc1F (configuration not stated)   -0.15
 2  Nc1nc(=O)n(C2OC(CO)C(Br)C2O)cc1F (configuration not stated)   -0.70
 3  Nc1nc(=O)n(C2OC(CO)C(I)C2O)cc1F (configuration not stated)   -1.00
 4  Cc1ccc(S(=O)(=O)O[C@@H]2[C@@H](O)[C@H](n3cc(F)c(N)nc3=O)O[C@@H]2CO)cc1   -1.70
 5  Cc1ccc(S(=O)(=O)O[C@@H]2[C@@H](O)[C@H](n3ccc(N)nc3=O)O[C@@H]2CO)cc1   -1.22
 6  Nc1ccn(C2OC(CO)C(I)C2O)c(=O)n1 (configuration not stated)   -0.52
 7  Nc1ccn(C2OC(CO)C(Cl)C2O)c(=O)n1 (configuration not stated)   -0.10
 8  Nc1ccn([C@@H]2O[C@H](CO)[C@@H](O)[C@@H]2O)c(=O)n1 [CYTARABINE]    1.00
 9  Nc1ccn([C@@H]2O[C@H](CO)[C@H](F)[C@H]2O)c(=O)n1    1.32
10  Nc1ccn(C2OC(CO)C(Br)C2O)c(=O)n1 (configuration not stated)   -1.30
11  CS(=O)(=O)O[C@@H]1[C@@H](O)[C@H](n2ccc(N)nc2=O)O[C@@H]1CO   -1.52
